Target: High affinity nerve growth factor receptor (Homo sapiens);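 note: each value is the mean percent inhibition of TRKA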
Conditions: at 1 µM
Each entry below lists one item and its recorded inhibition value.
Numbers only here, please. The scale is %.

Example cases with answers are listed next.
compound	inhibition (%)
CS(=O)(=O)Nc1ccc(-c2cc(-c3ccccc3)cc(C(N)=O)c2N)cc1	3.74
O=C(O[C@H]1CN[C@H](C#Cc2cc3ncnc(Nc4ccc5c(cnn5Cc5ccccc5)c4)c3s2)C1)N1CCOCC1	2.5
CC1=C(C(=O)Nc2ccc3[nH]nc(C)c3c2)C(c2ccc(C(F)(F)F)cc2)CC(=O)N1 (centres undefined)	3.25
N#Cc1ccc2c(-c3ccnc(NC4CC4)n3)c(-c3ccc(F)cc3)nn2c1	-2.02
OCCCNc1nccc(-c2c(-c3ccc(F)cc3)nn3cc(C(F)(F)F)ccc23)n1	1.07

QUERY: For the compound CCOc1ccc2c(-c3ccnc(Nc4cc(OC)cc(C(F)(F)F)c4)n3)cnn2n1 , give its measured inhibition value.
RESULT: 3.16

QUERY: For the compound CC1(C)CC(n2cnc(-c3ccc(F)cc3)c2-c2ccnc(N)n2)CC(C)(C)N1 , give its measured inhibition value.
RESULT: 0.77

QUERY: For the compound CS(=O)(=O)CCNCc1ccc(-c2ccc3ncnc(Nc4ccc(OCc5cccc(C(F)(F)F)c5)cc4)c3c2)o1 , give its measured inhibition value.
RESULT: 7.21

QUERY: For the compound CCn1c(-c2nonc2N)nc2cncc(C(=O)NCCNC)c21 , give its measured inhibition value.
RESULT: 3.09
